Test system: genotype 1a transient HCV replicon, NS3/4a protease inhibitor resistant variant R155K, in Huh-7-derived cells
PROTOCOL_SUMMARY: Transient-transfected HCV replicon EC50, genotype 1a R155K
Assay type: cell-based
CONDITION_LABEL: Hepatitis C virus, 72 h, read-out: EC50 1A R155K
For each of the molecules below, state its pEC50.
Scale explanation: pEC50 corresponds to minus log10 of a concentration expressed in moles per litre.

Which pEC50 is listed for `CC[C@@H]1[C@@H]2CN(C(=O)[C@H](C(C)(C)C)NC(=O)O[C@@H]3C[C@H]3CC/C=C/C(F)(F)c3nc4ccc(OC)cc4nc3O2)[C@@H]1C(=O)N[C@]1(C(=O)NS(=O)(=O)C2(C)CC2)C[C@H]1C(F)F` ?
8.43

I would be grateful if you could share the reported pEC50 for `CC[C@@H]1[C@@H]2CN(C(=O)[C@H](C(C)(C)C)NC(=O)O[C@@]3(C(F)(F)F)CCC[C@H]3CCCCCc3nc4ccc(OC)cc4nc3O2)[C@@H]1C(=O)N[C@]1(C(=O)NS(=O)(=O)C2CC2)C[C@H]1C(F)F` .
6.55

Consider the molecule shown here: CC[C@@H]1[C@@H]2CN(C(=O)[C@H](C(C)(C)C)NC(=O)O[C@@H]3C[C@H]3CC/C=C/C(F)(F)C3Nc4ccc(C#N)cc4N=C3O2)[C@@H]1C(=O)N[C@]1(C(=O)NS(=O)(=O)C2(C)CC2)C[C@H]1C(F)F (stereo partly drawn) What is its recorded pEC50?
6.65
